Please respond with reported Population Hoechst High Intensity Objects (%) for every item in the list.
- Test system: Fibroblast
- Assay Comment: Multiplex assay against human fibroblast
- Assay type: toxicity, cell-based
- Run Parameters: 12 h, 1 µM, compound concentration 1 uM, replicate 1

## Task # input compound: O=C(O)c1cc2ccccc2c(Cc2c(O)c(C(=O)O)cc3ccccc23)c1O [PAMOIC ACID] ; wanted: its Population Hoechst High Intensity Objects (%)
## Result 2%

## Task Requested field: Population Hoechst High Intensity Objects (%). Item: N[C@@]1(C(=O)O)CO[C@H]2[C@H](C(=O)O)[C@H]21 [LY-379268]
## Result 1%

## Task Param item = Cc1ccc(C(C)(O)c2nc3ccccc3s2)c(C)c1 (stereo not given) ; retrieve measured Population Hoechst High Intensity Objects (%).
## Result 0%

## Task # query: Population Hoechst High Intensity Objects (%) of entry O=C1COc2nccc(-c3ccccc3F)c2CN1Cc1cc(C(F)(F)F)cc(C(F)(F)F)c1
## Result 2%

## Task Endpoint output: Population Hoechst High Intensity Objects (%) of CC(C)(C)c1ccc(S(=O)(=O)Nc2ccc(Cl)cc2C(=O)c2cc[n+]([O-])cc2)cc1 [VERCIRNON] . Value?
## Result 2%

## Task Query: Population Hoechst High Intensity Objects (%); subject: CC(=O)NCCc1c(Cc2ccccc2)[nH]c2ccccc12 [LUZINDOLE]
## Result 1%

## Task Which Population Hoechst High Intensity Objects (%) value belongs to COc1c(C)cc(NC(=O)c2nn(Cc3ccc(F)cc3)c3c2CN(C(=O)c2ccc[nH]2)C[C@]3(C)C(N)=O)cc1C ?
## Result 2%

## Task Bench note: what Population Hoechst High Intensity Objects (%) did CSc1ccccc1N1CCN(CCCCCC(=O)NC2CCCc3ccccc32)CC1.Cl (stereo not given) show?
## Result 6%

## Task Looking for the measured Population Hoechst High Intensity Objects (%) of Cc1ccc(F)cc1C(=O)Nc1ccc(C(=O)N2Cc3cccn3Cc3ccccc32)c(Cl)c1 [LIXIVAPTAN] , can you help?
## Result 5%

## Task I am curious: what Population Hoechst High Intensity Objects (%) value has been reported for CCCn1c(=O)c2[nH]c(C3CCCC3)nc2n(CCC)c1=O ?
## Result 3%

## Task Which measured Population Hoechst High Intensity Objects (%) value corresponds to N#Cc1c(N)nc(SCc2csc(-c3ccc(Cl)cc3)n2)c(C#N)c1-c1ccc(OCCO)cc1 [CAPADENOSON] ?
## Result 2%

## Task Which Population Hoechst High Intensity Objects (%) is listed for CCNC1(C(N)=O)CCN(c2ncnc3c2nc(-c2ccccc2Cl)n3-c2ccc(Cl)cc2)CC1 [OTENABANT] ?
## Result 6%

## Task Fill blank: measured Population Hoechst High Intensity Objects (%) of the compound CCOc1c2c(c(OCC)c3ncccc13)CN(c1ccc(CS(=O)(=O)NC(=O)Cc3ccccc3OC)cc1C)C2=O is ____.
## Result 0%

## Task I would be grateful if you could share the reported Population Hoechst High Intensity Objects (%) for O=C(NCC(=O)N1CC[C@H](N[C@H]2CC[C@@](O)(c3ccc(-c4ncccn4)cn3)CC2)C1)c1cccc(C(F)(F)F)c1 [PF-4136309] .
## Result 2%

## Task Need Population Hoechst High Intensity Objects (%) of C[C@H]1[C@H]2CC[C@H]3[C@@H]4CC=C5C[C@@H](N(C)C)CC[C@]5(C)[C@H]4CC[C@]23CN1C [CONESSINE] , thanks.
## Result 1%

## Task Using the record for C[C@H](NC(=O)c1c(C(F)F)nn(C)c1Oc1cccc(C(F)(F)F)c1)c1ccc(C(=O)O)cc1 [PALUPIPRANT] , report its Population Hoechst High Intensity Objects (%).
## Result 5%

## Task Field request: Population Hoechst High Intensity Objects (%) | item: Cc1nc2ccc(Oc3ccc(F)cc3)cc2c(=O)n1C[C@H]1CCCN(C(C)C)C1.Cl
## Result 5%

## Task For CC1(COc2ccc3c(c2)ncn3-c2ccc3cccc(N4CCC(N)CC4)c3n2)COC1 [CRENOLANIB] , what is its reported Population Hoechst High Intensity Objects (%)?
## Result 2%

## Task If you can, please state the reported Population Hoechst High Intensity Objects (%) value of Cl.Clc1ccc2nsnc2c1NC1=NCCN1 [TIZANIDINE HYDROCHLORIDE] .
## Result 3%

## Task Return reported Population Hoechst High Intensity Objects (%); argument: COc1cc(NC(=O)CCN2CCC(OC(=O)Nc3ccccc3-c3ccccc3)CC2)c(Cl)cc1CNC[C@H](O)c1ccc(O)c2[nH]c(=O)ccc12 [BATEFENTEROL]
## Result 2%
